target: Focal adhesion kinase 1 (Homo sapiens, UniProt Q05397); assay: Induction of degradation of Fak in human PC-3 cells
Sequence (Q05397 whole entry): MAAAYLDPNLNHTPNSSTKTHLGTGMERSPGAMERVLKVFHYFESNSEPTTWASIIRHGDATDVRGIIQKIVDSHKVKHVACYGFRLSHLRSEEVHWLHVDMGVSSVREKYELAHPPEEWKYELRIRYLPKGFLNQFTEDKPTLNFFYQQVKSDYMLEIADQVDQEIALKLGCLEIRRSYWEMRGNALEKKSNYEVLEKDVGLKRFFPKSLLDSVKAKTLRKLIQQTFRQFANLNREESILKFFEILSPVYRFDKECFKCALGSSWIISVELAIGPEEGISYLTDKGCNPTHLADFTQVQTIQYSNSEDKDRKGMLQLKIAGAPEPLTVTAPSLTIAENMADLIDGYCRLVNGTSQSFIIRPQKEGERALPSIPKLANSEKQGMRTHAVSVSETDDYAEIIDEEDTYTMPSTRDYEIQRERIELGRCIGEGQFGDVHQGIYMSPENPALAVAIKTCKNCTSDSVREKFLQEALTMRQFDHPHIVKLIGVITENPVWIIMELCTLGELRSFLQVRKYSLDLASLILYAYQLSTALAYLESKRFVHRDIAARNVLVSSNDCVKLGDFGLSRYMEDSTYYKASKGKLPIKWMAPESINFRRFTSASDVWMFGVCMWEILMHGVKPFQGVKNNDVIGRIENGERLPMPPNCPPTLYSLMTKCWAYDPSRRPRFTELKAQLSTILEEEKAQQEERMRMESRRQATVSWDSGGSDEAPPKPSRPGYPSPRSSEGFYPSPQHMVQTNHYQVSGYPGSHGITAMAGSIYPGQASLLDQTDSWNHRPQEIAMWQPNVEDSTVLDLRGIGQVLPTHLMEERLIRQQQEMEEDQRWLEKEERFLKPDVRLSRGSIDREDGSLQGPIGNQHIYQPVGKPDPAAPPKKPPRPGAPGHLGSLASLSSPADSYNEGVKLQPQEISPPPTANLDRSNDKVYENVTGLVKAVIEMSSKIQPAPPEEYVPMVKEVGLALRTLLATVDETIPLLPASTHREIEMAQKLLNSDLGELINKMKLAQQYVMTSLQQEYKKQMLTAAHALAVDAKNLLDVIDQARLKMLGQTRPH
metric.name: EC50 (nM)
Value expressed in nM; do not type the unit.

Which measured EC50 value corresponds to `Cc1ncsc1-c1ccc(CNC(=O)[C@@H]2C[C@@H](O)CN2C(=O)[C@@H](NC(=O)CCOCCOc2ccc(Nc3ncc(C(F)(F)F)c(NCc4cccc(N(C)S(C)(=O)=O)c4)n3)cc2)C(C)(C)C)cc1` ? 3

---

target: Protein cereblon/Protein deacetylase HDAC6 (Homo sapiens, UniProt Q96SW2+Q9UBN7); test: PROTAC activity at CRBN/HDAC6 in human K562 cells assessed as degradation of HDAC6; assay type: cell-based
Sequence (Q9UBN7 whole entry): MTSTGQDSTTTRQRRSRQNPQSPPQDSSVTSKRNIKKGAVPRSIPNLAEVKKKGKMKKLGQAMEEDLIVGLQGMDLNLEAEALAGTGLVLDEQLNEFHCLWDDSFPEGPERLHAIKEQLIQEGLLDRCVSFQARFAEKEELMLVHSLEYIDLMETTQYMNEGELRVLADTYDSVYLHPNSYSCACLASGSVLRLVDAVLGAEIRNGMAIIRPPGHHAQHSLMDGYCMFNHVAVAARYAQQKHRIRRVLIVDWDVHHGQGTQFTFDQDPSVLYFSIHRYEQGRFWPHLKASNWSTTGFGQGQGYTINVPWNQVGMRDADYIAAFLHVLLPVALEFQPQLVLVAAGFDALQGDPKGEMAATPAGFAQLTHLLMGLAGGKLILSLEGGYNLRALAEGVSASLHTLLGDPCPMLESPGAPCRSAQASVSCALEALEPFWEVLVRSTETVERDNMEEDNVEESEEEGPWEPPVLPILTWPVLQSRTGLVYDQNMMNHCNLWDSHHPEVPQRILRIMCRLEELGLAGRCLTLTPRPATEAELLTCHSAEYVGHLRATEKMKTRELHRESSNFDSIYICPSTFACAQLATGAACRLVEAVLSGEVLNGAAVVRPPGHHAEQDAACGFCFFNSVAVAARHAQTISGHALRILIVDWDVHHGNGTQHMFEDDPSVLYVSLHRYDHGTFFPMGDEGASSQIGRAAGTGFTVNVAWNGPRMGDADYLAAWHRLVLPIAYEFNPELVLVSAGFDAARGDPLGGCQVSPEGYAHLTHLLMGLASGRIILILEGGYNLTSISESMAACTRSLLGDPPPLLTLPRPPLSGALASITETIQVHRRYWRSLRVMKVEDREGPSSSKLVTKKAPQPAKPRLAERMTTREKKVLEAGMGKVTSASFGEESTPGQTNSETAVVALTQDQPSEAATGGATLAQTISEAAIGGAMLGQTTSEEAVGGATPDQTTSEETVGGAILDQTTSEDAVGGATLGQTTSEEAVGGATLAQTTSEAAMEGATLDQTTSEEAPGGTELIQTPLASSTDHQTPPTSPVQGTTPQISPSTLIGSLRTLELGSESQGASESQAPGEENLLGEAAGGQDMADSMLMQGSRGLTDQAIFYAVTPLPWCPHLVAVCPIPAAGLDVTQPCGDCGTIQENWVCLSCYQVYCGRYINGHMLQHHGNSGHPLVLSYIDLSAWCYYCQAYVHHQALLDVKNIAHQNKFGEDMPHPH
Sequence (Q96SW2 whole entry): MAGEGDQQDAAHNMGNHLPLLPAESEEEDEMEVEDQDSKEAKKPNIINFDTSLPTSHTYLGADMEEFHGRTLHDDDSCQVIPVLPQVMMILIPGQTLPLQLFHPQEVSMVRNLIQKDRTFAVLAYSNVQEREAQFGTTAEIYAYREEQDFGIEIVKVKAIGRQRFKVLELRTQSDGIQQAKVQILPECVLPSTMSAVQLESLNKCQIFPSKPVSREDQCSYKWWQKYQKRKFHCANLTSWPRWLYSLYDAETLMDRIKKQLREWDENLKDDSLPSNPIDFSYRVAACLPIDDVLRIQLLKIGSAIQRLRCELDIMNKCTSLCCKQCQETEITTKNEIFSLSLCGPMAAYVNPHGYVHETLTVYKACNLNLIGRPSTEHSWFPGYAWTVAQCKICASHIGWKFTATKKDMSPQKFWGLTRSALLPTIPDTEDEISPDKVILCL
metric.name: EC50 (nM)
Value expressed in nM; do not type the unit.

Which measured EC50 value corresponds to O=C(CCCO/N=C1/C(=C2/C(=O)N(Cc3cn(CCOCCNc4cccc5c4C(=O)C(N4CCC(=O)NC4=O)C5=O)nn3)c3ccccc32)Nc2ccccc21)NO (stereo unspecified) ? 109

---

target: UniProt:P43490
metric.name: IC50

# value lookup — system UniProt:P43490, readout IC50, item Cc1ncsc1-c1ccc(C(C)NC(=O)C2CC(O)CN2C(=O)C(NC(=O)COCCOCCOCCOCCNC(=O)c2ccc(CN3CCN(S(=O)(=O)c4ccc(NC(=S)NCc5ccccc5)cc4)CC3)cc2)C(C)(C)C)cc1 (stereo unspecified) 9.5 nM

---

target: Ubiquitin carboxyl-terminal hydrolase 7 (Homo sapiens, UniProt Q93009); test: Induction of degradation of USP7 (unknown origin)
Sequence (Q93009 whole entry): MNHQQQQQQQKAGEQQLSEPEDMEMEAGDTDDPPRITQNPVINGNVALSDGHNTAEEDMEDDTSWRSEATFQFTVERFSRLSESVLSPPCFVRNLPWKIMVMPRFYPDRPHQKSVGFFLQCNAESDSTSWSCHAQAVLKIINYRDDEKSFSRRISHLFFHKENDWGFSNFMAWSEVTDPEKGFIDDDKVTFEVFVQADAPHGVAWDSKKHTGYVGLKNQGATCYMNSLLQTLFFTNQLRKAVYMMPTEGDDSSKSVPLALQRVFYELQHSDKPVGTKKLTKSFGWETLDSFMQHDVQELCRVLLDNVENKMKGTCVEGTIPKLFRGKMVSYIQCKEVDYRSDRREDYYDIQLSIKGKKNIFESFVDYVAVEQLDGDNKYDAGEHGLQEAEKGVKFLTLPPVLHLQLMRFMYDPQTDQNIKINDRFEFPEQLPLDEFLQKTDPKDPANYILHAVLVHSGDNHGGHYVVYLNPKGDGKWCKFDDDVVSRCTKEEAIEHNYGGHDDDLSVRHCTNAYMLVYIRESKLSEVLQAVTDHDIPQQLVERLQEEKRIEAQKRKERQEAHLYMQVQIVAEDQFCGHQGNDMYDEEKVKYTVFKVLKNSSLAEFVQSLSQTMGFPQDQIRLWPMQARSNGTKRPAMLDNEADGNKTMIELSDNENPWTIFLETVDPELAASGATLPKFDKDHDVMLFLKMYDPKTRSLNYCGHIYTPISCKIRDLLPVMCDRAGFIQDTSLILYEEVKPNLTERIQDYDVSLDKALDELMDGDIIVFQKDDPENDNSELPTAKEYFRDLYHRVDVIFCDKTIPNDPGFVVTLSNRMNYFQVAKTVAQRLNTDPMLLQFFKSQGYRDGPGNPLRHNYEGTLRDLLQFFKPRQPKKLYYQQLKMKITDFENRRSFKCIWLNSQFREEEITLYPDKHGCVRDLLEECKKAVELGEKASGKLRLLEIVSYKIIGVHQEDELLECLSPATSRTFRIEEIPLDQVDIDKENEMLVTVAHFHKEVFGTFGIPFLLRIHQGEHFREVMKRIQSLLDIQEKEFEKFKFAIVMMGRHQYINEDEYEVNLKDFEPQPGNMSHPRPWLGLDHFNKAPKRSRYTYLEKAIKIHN
metric.name: EC50
Kindly report the value followed by its unit.

# value lookup — system Ubiquitin carboxyl-terminal hydrolase 7 (Homo sapiens, UniProt Q93009), readout EC50, item C[C@H](CC(=O)N1CCC(O)(Cn2cnc3c(-c4ccc(CNCCCCCCCCCCCNc5cccc6c5C(=O)N(C5CCC(=O)NC5=O)C6=O)cc4)n(C)nc3c2=O)CC1)c1ccccc1 (stereo partly specified) 33 nM

---

target: Nicotinamide phosphoribosyltransferase (Homo sapiens); assay: Induction of degradation NAMPT (unknown origin)
Sequence (P43490 whole entry): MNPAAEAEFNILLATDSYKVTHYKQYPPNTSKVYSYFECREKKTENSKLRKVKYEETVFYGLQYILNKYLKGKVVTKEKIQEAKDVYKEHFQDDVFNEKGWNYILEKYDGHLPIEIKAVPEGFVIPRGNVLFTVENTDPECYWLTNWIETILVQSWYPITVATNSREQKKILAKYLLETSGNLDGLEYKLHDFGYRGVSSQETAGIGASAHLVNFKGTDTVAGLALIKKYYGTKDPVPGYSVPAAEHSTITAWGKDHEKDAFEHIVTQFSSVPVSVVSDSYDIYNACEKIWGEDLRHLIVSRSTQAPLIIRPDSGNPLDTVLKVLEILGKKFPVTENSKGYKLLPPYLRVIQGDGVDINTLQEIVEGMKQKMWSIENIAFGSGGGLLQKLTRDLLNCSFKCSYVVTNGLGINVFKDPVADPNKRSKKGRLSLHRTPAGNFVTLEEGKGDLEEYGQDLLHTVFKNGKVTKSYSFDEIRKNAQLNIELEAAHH
metric.name: pEC50
Note on units: pEC50 is unitless, being -log10 of a concentration expressed in mol/L.

Which measured pEC50 value corresponds to Cc1ncsc1-c1ccc(C(C)NC(=O)C2CC(O)CN2C(=O)C(NC(=O)COCCOCCOCCOCCNC(=O)c2ccc(CN3CCN(S(=O)(=O)c4ccc(NC(=S)NCc5ccccc5)cc4)CC3)cc2)C(C)(C)C)cc1 (stereo unspecified) ? 8.15
